# ASSAY_OVERVIEW: qHTS Validation assay for Inhibitors of Plasmodium falciparum Dd2 growth in vitro; also: nearly all actives have a fitted effect of over 70% in size
# MEASUREMENT_PARAMETERS: P. falciparum Dd2 in RBCs, SYBR Green growth, 72 h; series mostly up to 28.7 µM
About 1,600 (39%) of roughly 4,100 compounds were called active. Roughly 25% stayed inconclusive and do not appear here. Calls follow the shape of the dose curve; as a rule, active = well fitted inhibition curve with a large enough effect; inconclusive = small, poorly fitted or top-dose-only effect; inactive = no such curve, though single readings can be large or run the other way. The list shows a part of the results.
Output constraint: value belongs to active, inactive

| COMPOUND | DISCRETE_LABEL |
| --- | --- |
| COCCN1C(=O)CS(=O)(=O)C12CCN(C(=O)C1(c3ccccc3)CC1)CC2 | inactive |

Prompt: Per the assay record, what outcome was assigned to CN(C)CCCNc1ccc(-c2cc(Nc3cccc(Cl)c3)ncn2)cn1 ?
Response: active

Prompt: Per the assay record, what outcome was assigned to O=C(NC1CCN(c2cc(-c3ccc(Cl)cc3)[nH]n2)C1)c1ccccc1 (stereo not given) ?
Response: inactive

Prompt: Per the assay record, what outcome was assigned to Cc1noc(C)c1-c1cc2cc(CN(C)C)oc2c(Nc2cccnc2)n1 ?
Response: active

Prompt: Per the assay record, what outcome was assigned to CCN1CCN(C(=O)c2ccc3c(Cl)c4c(nc3c2)CCCC4)CC1 ?
Response: inactive

Prompt: Per the assay record, what outcome was assigned to CCn1c(=N)n(CC(O)c2cccs2)c2ccccc21 (stereo not given) ?
Response: inactive

Prompt: Per the assay record, what outcome was assigned to CC(C)N1C(=S)N(Cc2ccco2)C(=O)C1CC(=O)Nc1ccccc1 (stereo not given) ?
Response: active

Prompt: Per the assay record, what outcome was assigned to Cc1nn(C)cc1CN(C)C(=O)CC12CC3CC(CC(C3)C1)C2 ?
Response: inactive

Prompt: Per the assay record, what outcome was assigned to CC(=O)c1c(C)[nH]c(C(=O)COc2ccc3ccc(=O)oc3c2)c1C ?
Response: inactive

* * *

# ASSAY_OVERVIEW: qHTS Validation assay for Inhibitors of Plasmodium falciparum Dd2 growth in vitro; also: nearly all actives have a fitted effect of over 70% in size
# MEASUREMENT_PARAMETERS: P. falciparum Dd2 in RBCs, SYBR Green growth, 72 h; series mostly up to 28.7 µM
Screen size: about 4,100 compounds; about 1,600 (39%) were called active. Roughly 25% stayed inconclusive and do not appear here. Calls follow the shape of the dose curve; as a rule, active = well fitted inhibition curve with a large enough effect; inconclusive = small, poorly fitted or top-dose-only effect; inactive = no such curve, though single readings can be large or run the other way. The list shows a part of the results.
Output constraint: value belongs to active, inactive

| CHEMICAL_STRING | DISCRETE_LABEL |
| --- | --- |
| CC(C)c1noc(-c2cccn3c(CNC(=O)COc4ccc(F)cc4)nnc23)n1 | inactive |

Then this compound:
Prompt: Per the assay record, what outcome was assigned to CCOC(=O)c1c(CN(C)C)n(-c2ccc(C)cc2)c2cc(Br)c(O)cc12 ?
Response: active

* * *

# ASSAY_OVERVIEW: qHTS Validation assay for Inhibitors of Plasmodium falciparum Dd2 growth in vitro; also: nearly all actives have a fitted effect of over 70% in size
# MEASUREMENT_PARAMETERS: P. falciparum Dd2 in RBCs, SYBR Green growth, 72 h; series mostly up to 28.7 µM
# Text: Malaria, a parasitic disease spread to humans through the bite of a Plasmodium infected Anopheles mosquito, continues to be a global health burden affecting millions of people, with an estimated 228 million cases and 405,000 deaths in 2018. Concerns about safety and limitations of current antimalarial treatments strongly emphasize the need to develop new therapeutic options. […]
About 1,600 (39%) of roughly 4,100 compounds were called active. About 25% were inconclusive and are not listed. The call rests on the fitted dose curve; in most records, active means well fitted inhibition curve with a large enough effect; inconclusive means small, poorly fitted or top-dose-only effect; inactive means no such curve, though single readings can be large or run the other way. This is one part of the list.
Output constraint: value belongs to active, inactive

Look over these answered cases.
| COMPOUND | DISCRETE_LABEL |
| --- | --- |
| Cc1ccccc1-n1c(SCC(=O)Nc2ccc(Cl)cc2Cl)nc(O)cc1=O | inactive |
| Cc1noc(C)c1-c1cc2cc(CN(C)C)oc2c(NCc2cccnc2)n1 | active |
| CC(C)CCN1CCC2(CC1)CC(=O)N(c1ccccc1)c1ccccc1O2 | inactive |
| CN1C(=O)CS(=O)(=O)C12CCN(C(=O)c1cc(F)ccc1Cl)CC2 | inactive |
| c1ccc2sc(Sc3ncnc4sccc34)nc2c1 | active |

Prompt: Per the assay record, what outcome was assigned to CCC(C)NC(=O)N1CC(c2nc(CCOCC3CCOCC3)no2)C1 (stereo unspecified) ?
Response: inactive

Prompt: Per the assay record, what outcome was assigned to CCc1cc2c(Sc3nc4ccccc4s3)ncnc2s1 ?
Response: active

Prompt: Per the assay record, what outcome was assigned to COc1ccccc1C(=O)N1CCCN(c2nnc3cccc(C)n23)CC1 ?
Response: inactive

Prompt: Per the assay record, what outcome was assigned to CCCn1c(SCC(=O)Nc2cc(Cl)ccc2Cl)n[nH]c1=O ?
Response: active

Prompt: Per the assay record, what outcome was assigned to COc1ccccc1C(=O)N1CCC2(CC1)OC(=O)N(CCOc1ccccc1)C2(C)c1cccnc1 (stereo unspecified) ?
Response: active

* * *

Reported values of Potency for individual entries
# ASSAY_OVERVIEW: qHTS Validation assay for Inhibitors of Plasmodium falciparum Dd2 growth in vitro; also: nearly all actives have a fitted effect of over 70% in size; also: potency is read from the fitted curve at half-maximal effect
# MEASUREMENT_PARAMETERS: P. falciparum Dd2 in RBCs, SYBR Green growth, 72 h; series mostly up to 28.7 µM
The campaign covered roughly 4,100 compounds. About 1,600 (39%) were called active. Another 25% or so got no clear call; they are omitted. The list shows a part of the results.

Completed entries (count: 2):
| CHEMICAL_STRING | RESULT |
| --- | --- |
| CCN1CCN(c2cc(C)c3cc(NC(=O)/C=C/c4ccc(C)cc4)ccc3n2)CC1 | 4.22 µM (active) |
| CC1=C[C@@H](CNC2CC2)[C@H](C(C)C)C[C@H]1Cc1nnc(-c2ccc(C)cc2)o1 | 17.2 µM (active) |

# input for lookup
The molecule identified as CC1=C[C@@H](CNC(C)C)[C@H](C(C)C)C[C@H]1Cc1nnc(-c2ccc(C)cc2)o1 registered its Potency at 13.7 µM (active)

* * *

# ASSAY_OVERVIEW: qHTS Validation assay for Inhibitors of Plasmodium falciparum Dd2 growth in vitro; also: nearly all actives have a fitted effect of over 70% in size
# MEASUREMENT_PARAMETERS: P. falciparum Dd2 in RBCs, SYBR Green growth, 72 h; series mostly up to 28.7 µM
Hit rate of the full screen: of about 4,100 compounds, about 1,600 (39%) were called active. Not shown: some 25% with an inconclusive outcome. Calls follow the shape of the dose curve; as a rule, active = well fitted inhibition curve with a large enough effect; inconclusive = small, poorly fitted or top-dose-only effect; inactive = no such curve, though single readings can be large or run the other way. This is one part of the list.
Output constraint: value belongs to True = active, False = inactive

| COMPOUND | DISCRETE_LABEL |
| --- | --- |
| COc1ncc(-c2cc3c(nc2OC)nc(CC2CC2)n3C)cn1 | False |
| CC(=O)N1CCc2cc(S(=O)(=O)NC(Cc3ccccc3)C(=O)Nc3cc(C)cc(C)c3)ccc21 (stereo unspecified) | False |
| CCN1CCC(Nc2ccnc3cc(Cl)ccc23)CC1 | True |
| CCN(CC)CCNc1ccnc2cc(Cl)ccc12 | True |
| COc1cc(C(=O)NC2CCN(c3cc(-c4ccccc4)[nH]n3)CC2)cc(OC)c1OC | True |

Prompt: Per the assay record, what outcome was assigned to O=C(CSc1nccn1-c1cccc(Cl)c1)NO ?
Response: False
